test: Plasma pharmacokinetics of ALM201 in Phase I patients (validated LC-MS/MS, Phoenix WinNonlin); settings: human, plasma, sc, 200 mg, Plasma concentration, geometric mean (CV%), 200 mg SC, day 1 cycle 1, 4 h after dosing, n = 4; LC-MS/MS
No end group written: not given here.
property: level at 4 h (ng/mL)
Quick reminder: number only, in ng/mL, skip the unit.

Exam item: Which level at 4 h value belongs to IRQQPRDPPTETLELEVSPDPAS [ALM201] ?
Marked response: 1050

---

assay: Plasma pharmacokinetics of ALM201 in Phase I patients (validated LC-MS/MS, Phoenix WinNonlin); conditions: human, plasma, sc, 200 mg, Tmax, median, 200 mg SC, day 18 cycle 1, n = 3; plasma LC-MS/MS
No end group written: not given here.
property: Tmax (h)
Quick reminder: number only, in h, skip the unit.

Exam item: Which Tmax value belongs to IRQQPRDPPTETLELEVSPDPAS [ALM201] ?
Marked response: 2.03
